Experiment: total protein half-life in vivo (active degradation + dilution); higher = more stable protein
Settings: wild type E. coli NCM3722; growth: N-lim chemostat; doubling time 12 h
Label Fulfilled when total protein half-life in vivo >= 7 h; otherwise Not fulfilled.

Prompt: Could you tell me if the measured total protein half-life in vivo of MKTLGEFIVEKQHEFSHATGELTALLSAIKLGAKIIHRDINKAGLVDILGASGAENVQGEVQQKLDLFANEKLKAALKARDIVAGIASEEEDEIVVFEGCEHAKYVVLMDPLDGSSNIDVNVSVGTIFSIYRRVTPVGTPVTEEDFLQPGNKQVAAGYVVYGSSTMLVYTTGCGVHAFTYDPSLGVFCLCQERMRFPEKGKTYSINEGNYIKFPNGVKKYIKFCQEEDKSTNRPYTSRYIGSLVADFHRNLLKGGIYLYPSTASHPDGKLRLLYECNPMAFLAEQAGGKASDGKERILDIIPETLHQRRSFFVGNDHMVEDVERFIREFPDA [P0A993] reaches 7 h or more?
Completion: Not fulfilled

Prompt: Would you say MSLSRTQIVNWLTRCGDIFSTESEYLTGLDREIGDADHGLNMNRGFSKVVEKLPAIADKDIGFILKNTGMTLLSSVGGASGPLFGTFFIRAAQATQARQSLTLEELYQMFRDGADGVISRGKAEPGDKTMCDVWVPVVESLRQSSEQNLSVPVALEAASSIAESAAQSTITMQARKGRASYLGERSIGHQDPGATSVMFMMQMLALAAKE shows total protein half-life in vivo at minimum 7 h?
Completion: Fulfilled

Prompt: Evaluate MAGINLNKKLWRIPQQGMVRGVCAGIANYFDVPVKLVRILVVLSIFFGLALFTLVAYIILSFALDPMPDNMAFGEQLPSSSELLDEVDRELAASETRLREMERYVTSDTFTLRSRFRQL [P0AFN2] : total protein half-life in vivo at minimum 7 h?
Completion: Fulfilled

Prompt: Is reported total protein half-life in vivo greater than or equal to 7 h here: MKILVIGPSWVGDMMMSQSLYRTLQARYPQAIIDVMAPAWCRPLLSRMPEVNEAIPMPLGHGALEIGERRKLGHSLREKRYDRAYVLPNSFKSALVPFFAGIPHRTGWRGEMRYGLLNDVRVLDKEAWPLMVERYIALAYDKGIMRTAQDLPQPLLWPQLQVSEGEKSYTCNQFSLSSERPMIGFCPGAEFGPAKRWPHYHYAELAKQLIDEGYQVVLFGSAKDHEAGNEILAALNTEQQAWCRNLAGETQLDQAVILIAACKAIVTNDSGLMHVAAALNRPLVALYGPSSPDFTPPLSHKARVIRLITGYHKVRKGDAAEGYHQSLIDITPQRVLEELNALLLQEEA
Completion: Fulfilled

Prompt: Is it the case that MQENYKILVVDDDMRLRALLERYLTEQGFQVRSVANAEQMDRLLTRESFHLMVLDLMLPGEDGLSICRRLRSQSNPMPIIMVTAKGEEVDRIVGLEIGADDYIPKPFNPRELLARIRAVLRRQANELPGAPSQEEAVIAFGKFKLNLGTREMFREDEPMPLTSGEFAVLKALVSHPREPLSRDKLMNLARGREYSAMERSIDVQISRLRRMVEEDPAHPRYIQTVWGLGYVFVPDGSKA [P0AA16] has total protein half-life in vivo reaching or exceeding 7 h?
Completion: Fulfilled

----------
Assay: total protein half-life in vivo (active degradation + dilution); higher = more stable protein
Details: wild type E. coli NCM3722; growth: C-lim chemostat; doubling time 12 h
quantity: total protein half-life in vivo (h)
Reply with just the number (in h).

Lab note: MKKWAVIISAVGLAFAVSGCSSDYVMATKDGRMILTDGKPEIDDDTGLVSYHDQQGNAMQINRDDVSQIIER gave total protein half-life in vivo of 7.88

// field: total protein half-life in vivo; key: MGLMNAFDSQTEDSSPAIGRNLRSRPLARKKLSEMVEEELEQMIRRREFGEGEQLPSERELMAFFNVGRPSVREALAALKRKGLVQINNGERARVSRPSADTIIGELSGMAKDFLSHPGGIAHFEQLRLFFESSLVRYAAEHATDEQIDLLAKALEINSQSLDNNAAFIRSDVDFHRVLAEIPGNPIFMAIHVALLDWLIAARPTVTDQALHEHNNVSYQQHIAIVDAIRRHDPDEADRALQSHLNSVSATWHAFGQTTNKKK [P0A8W0] ; value = 6.39

The recorded total protein half-life in vivo for entry MKICLIDETGTGDGALSVLAARWGLEHDEDNLMALVLTPEHLELRKRDEPKLGGIFVDFVGGAMAHRRKFGGGRGEAVAKAVGIKGDYLPDVVDATAGLGRDAFVLASVGCRVRMLERNPVVAALLDDGLARGYADAEIGGWLQERLQLIHASSLTALTDITPRPQVVYLDPMFPHKQKSALVKKEMRVFQSLVGPDLDADGLLEPARLLATKRVVVKRPDYAPPLANVATPNAVVTKGHRFDIYAGTPV equals 11.1

total protein half-life in vivo recorded for this sequence, MNEHHQPFEEIKLINANGAEQWSARQLGKLLGYSEYRHFIPVLTRAKEACENSGHTIDDHFEEILDMVKIGSNAKRALKDIVLSRYACYLVVQNGDPAKPVIAAGQTYFAIQTRRQELADDEAFKQLREDEKRLFLRNELKEHNKQLVEAAQQAGVATATDFAIFQNHGYQGLYGGLDQKAIHQRKGLKKNQKILDHMGSTELAANLFRATQTEEKLKRDGVNSKQQANTTHFDVGRKVRQTIQELGGTMPEELPTPQVSIKQLENSVKITEKK , is 5.87

// total protein half-life in vivo value for MSAGRLNKKSLGIVMLLSVGLLLAGCSGSKSSDTGTYSGSVYTVKRGDTLYRISRTTGTSVKELARLNGISPPYTIEVGQKLKLGGAKSSSITRKSTAKSTTKTASVTPSSAVPKSSWPPVGQRCWLWPTTGKVIMPYSTADGGNKGIDISAPRGTPIYAAGAGKVVYVGNQLRGYGNLIMIKHSEDYITAYAHNDTMLVNNGQSVKAGQKIATMGSTDAASVRLHFQIRYRATAIDPLRYLPPQGSKPKC : 9.64

The sequence listed as MRQTKTGILLANLGTPDAPTPEAVKRYLKQFLSDRRVVDTSRLLWWPLLRGVILPLRSPRVAKLYASVWMEGGSPLMVYSRQQQQALAQRLPEMPVALGMSYGSPSLESAVDELLAEHVDHIVVLPLYPQFSCSTVGAVWDELARILARKRSIPGISFIRDYADNHDYINALANSVRASFAKHGEPDLLLLSYHGIPQRYADEGDDYPQRCRTTTRELASALGMAPEKVMMTFQSRFGREPWLMPYTDETLKMLGEKGVGHIQVMCPGFAADCLETLEEIAEQNREVFLGAGGKKYEYIPALNATPEHIEMMANLVAAYR has a reported total protein half-life in vivo of 10.5
